Here the recorded log10 koff is given for each entry.
# system: T1, recombinant human TIGIT (human, UniProt Q495A1 22-141, limits assumed)
# T1 construct: recombinant human TIGIT used in Carterra SPR; also called hTIGIT
# T1 sequence (looked up): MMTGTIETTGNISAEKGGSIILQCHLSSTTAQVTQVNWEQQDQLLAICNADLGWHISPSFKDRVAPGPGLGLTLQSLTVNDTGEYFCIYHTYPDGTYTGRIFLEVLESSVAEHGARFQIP
# assay name: SPR Carterra, average
Hello, just confirming the data are log10 of koff with units of s⁻¹.

TIGIT-SC127 (Fc fusion, VHH-Fc fusion in assay) VHH: EVQLVESGGGLVQPGGSLRLSCAASGSIFSGNAMGWFRQAPGKERELVAAISNSASSTVYADSVKGRFTISADNSKNTAYLQMNSLKPEDTAVYYCARDWNLFDYWGQGTLVTVSS ... -1.79
TIGIT-SC8 (Fc fusion, VHH-Fc fusion in assay) VHH: EVQLVESGGGLVQPGGSLRLSCAASGFAFSSYAMGWFRQAPGKEREFVARITWNGGSAYYADSVKGRFTISADNSKNTAYLQMNSLKPEDTAVYYCAAGATGWFDPWGQGTLVTVSS ... -3.12
TIGIT-SC67 (Fc fusion, VHH-Fc fusion in assay) VHH: EVQLVESGGGLVQPGGSLRLSCAASGFTFDRSWMGWFRQAPGKEREWVSTIYSNGTPAYADSVKGRFTISADNSKNTAYLQMNSLKPEDTAVYYCARRGLPSYSYGMDVWGQGTLVTVSS ... -2.40
TIGIT-SC201 (Fc fusion, VHH-Fc fusion in assay) VHH: EVQLVESGGGLVQPGGSLRLSCAASGFTFSPSWMGWFRQAPGKEREWVASVLRGGYTWYADSVKGRFTISADNSKNTAYLQMNSLKPEDTAVYYCTRDGGFDPWGQGTLVTVSS ... -3.05
TIGIT-SC77 (Fc fusion, VHH-Fc fusion in assay) VHH: EVQLVESGGGLVQPGGSLRLSCAASGGAFSTVAMGWFRQAPGKEREAVASIWRSGDSTYYADSVKGRFTISADNSKNTAYLQMNSLKPEDTAVYYCASSYSSSSGLGDIWGQGTLVTVSS ... -3.08

Req: Fill blank: measured log10 koff of the binder TIGIT-SC160 (Fc fusion, VHH-Fc fusion in assay) VHH: EVQLVESGGGLVQPGGSLRLSCAASGNTFSGGFMGWFRQAPGKEREWVASVLRGGYTWYADSVKGRFTISADNSKNTAYLQMNSLKPEDTAVYYCAREGRSSSPWFDPWGQGTLVTVSS is ____.
Resp: -2.58

Req: Fill blank: measured log10 koff of the binder TIGIT-SC97 (Fc fusion, VHH-Fc fusion in assay) VHH: EVQLVESGGGLVQPGGSLRLSCAASGTAASFNPMGWFRQAPGKEREFVAAISWSGGSTNYADSVKGRFTISADNSKNTAYLQMNSLKPEDTAVYYCVTYSAYDFRNAWGQGTLVTVSS is ____.
Resp: -3.64

The measured values listed here are drawn from patent US20260184782A1.
